- Target Entity: CUG-BP2 RRM3 H429A (UniProt O95319 416-508, H429A;Y508W)
- Sequence (O95319 416-508 H429A/Y508W): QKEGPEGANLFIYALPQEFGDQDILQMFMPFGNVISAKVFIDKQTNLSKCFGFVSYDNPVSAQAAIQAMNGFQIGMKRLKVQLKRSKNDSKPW
- Protocol Details: ITC; 25 C; 20 mM K phosphate pH 5.8, 10 mM NaCl, 0.1% beta-mercaptoethanol, 25 C (NMR titrations and ITC); hnRNP A1: 10 mM Na phosphate pH 6.5, 10 mM beta-mercaptoethanol
- Condition Details: protein: recombinant; tags: His-tag (pET28a)
Property: pKd
For clarity, pKd is expressed as the negative log10 of concentration in mol/L.

input: Reported pKd for UGUGU (ssRNA) : what is it?
output: 6.57
